biological target: RIPK1 (Homo sapiens); construct: endogenous in cells; host or cells: HT-29 (KCLB 30038); assay: Cell-based necroptosis assay for RIPK1 activity (cell viability by CCK-8); settings: HT-29 cells; Z-VAD-FMK 20 μM, human TNFα 10 ng/ml, SM-164 100 nM; 24 h; read-out: Cell-base RIPK1 activity: Necroptosis
MEASURE NAME: IC50

{"MOLECULE": "CN1C(=O)[C@@H](NC(=O)n2cc(Cc3cccc(F)c3)cn2)COc2ccc(OCC(=O)N3CCC(F)(F)C3)cc21 [Example 45]", "MEASURE NAME": "IC50", "VAL": "< 10 nM"}
{"MOLECULE": "CN1C(=O)[C@@H](NC(=O)n2cc(Cc3cccc(F)c3)cn2)COc2ccc(OCC3CCOCC3)cc21 [Example 55]", "MEASURE NAME": "IC50", "VAL": "< 10 nM"}
{"MOLECULE": "CN1C(=O)[C@@H](NC(=O)n2cc(Cc3cccc(F)c3)cn2)COc2ccc(OCc3ccc(F)nc3)cc21 [Example 59]", "MEASURE NAME": "IC50", "VAL": "< 10 nM"}

* * *

Molecular target: RIPK1 (Homo sapiens, UniProt Q13546)
Construct: endogenous in cells; host or cells: HT-29 (KCLB 30038)
Sequence (Q13546 1-671): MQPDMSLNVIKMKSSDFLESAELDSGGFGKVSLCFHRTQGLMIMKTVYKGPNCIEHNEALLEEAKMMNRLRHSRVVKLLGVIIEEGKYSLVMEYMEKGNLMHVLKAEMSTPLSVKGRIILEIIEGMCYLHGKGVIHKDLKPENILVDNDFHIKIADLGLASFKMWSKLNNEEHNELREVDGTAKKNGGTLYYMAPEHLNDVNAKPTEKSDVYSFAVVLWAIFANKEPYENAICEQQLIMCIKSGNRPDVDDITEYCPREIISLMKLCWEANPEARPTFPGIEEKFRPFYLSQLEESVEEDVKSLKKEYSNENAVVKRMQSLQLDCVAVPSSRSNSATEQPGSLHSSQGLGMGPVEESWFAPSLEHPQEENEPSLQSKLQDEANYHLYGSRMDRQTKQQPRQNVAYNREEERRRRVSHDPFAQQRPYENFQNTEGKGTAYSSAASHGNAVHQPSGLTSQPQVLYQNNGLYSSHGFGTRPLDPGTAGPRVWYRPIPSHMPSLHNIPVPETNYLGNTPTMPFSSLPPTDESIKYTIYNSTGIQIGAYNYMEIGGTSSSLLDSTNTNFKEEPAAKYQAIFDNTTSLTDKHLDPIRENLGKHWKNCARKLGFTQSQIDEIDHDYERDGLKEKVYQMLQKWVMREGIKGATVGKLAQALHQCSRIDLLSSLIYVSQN
Experiment: Immunoblotting of TNFα induced phospho-RIPK1 (ser 166) levels
Type: cell-based
Conditions: HMC3 cells; Z-VAD-FMK, human TNFα 20 ng/ml, SM-164 100 nM; 7 h, serum free media; read-out: Cell-base RIPK1 activity: phspho-RIPK1 (Ser166)
Description: Human colon carcinoma cell HT-29 (KCLB 30038), BV2 mouse microglial cell (cell was a kind gift from Dr. Nak-Yun Sung, Senior researcher at Korea Prime Pharmacy CO., LTD.) and human microglial cell HMC3 (ATCC® CRL-3304™). […] Biological activity of the compounds of RIPK1 inhibitor was determined by measuring their ability to inhibitor TNFα induced phospho-RIPK1 (ser 166) levels, phospho-RIPK3 levels, phospho-MLKL levels in HMC3 cells. […]
# maps each entry to its IC50
MEASURE NAME: IC50

{"MOLECULE": "CN1C(=O)[C@@H](NC(=O)n2cc(Cc3cccc(F)c3)cn2)COc2ccc(OCC(=O)N3CCC(F)(F)CC3)cc21 [Example 38]", "VAL": "< 10 nM"}
{"MOLECULE": "CN1C(=O)[C@@H](NC(=O)n2cc(Cc3cccc(F)c3)cn2)COc2ccc(OCC(=O)N3CCOCC3)cc21 [Example 39]", "VAL": "< 10 nM"}
{"MOLECULE": "CN1C(=O)[C@@H](NC(=O)n2cc(Cc3cccc(F)c3)cn2)COc2ccc(OCC#Cc3cccnc3)cc21 [Example 25]", "VAL": "< 10 nM"}

Data origin, for the record: patent US20240083892A1
